Below is a list of entries, each paired with its recorded IC50 value.
target: wild type MLL1 five-member complex (MLL1-5C) (Homo sapiens, UniProt Q03164); assay: MLL1 Flashplate Assay; conditions: read-out: MLL1 flash plate
metric: IC50

compound="CCc1cc(Cl)cc(N2CC[C@](N)(C(=O)N3CCS(=O)(=O)CC3)C2)c1Cn1cnc2c(N)ncnc21 [Example 151]" observed="< 60 nM"
compound="Nc1ncnc2c1ncn2Cc1c(N2CC[C@](N)(C(=O)NC3CC3)C2)ccc(F)c1CN1CC(F)(F)C1 [Example 52]" observed="60 to 100 nM"
compound="Nc1nccc(CNC(=O)[C@@]2(N)CCN(c3ccc(F)c(C(F)(F)F)c3Cn3cnc4c(N)ncnc43)C2)n1 [Example 133]" observed="60 to 100 nM"
